Test system: SK-MEL-28 melanoma
experimentSummary: NCI-60 one-dose screen, 48 h
measurementSetup: 10 µM unless noted
Procedure: Growth inhibition of the SK-MEL-28 human tumor cell line is measured as a screen for anti-cancer activity. Cells are grown in 96 well plates and exposed to the test compound for 48 hours. Compounds are tested at a single concentration, which is 10^-5 M for most compounds. The reported endpoint is percent growth (GI% or GIPRCNT), where numbers from 0 - 100% represent growth inhibition, and numbers from -100% - 0 represent cell death. For example, a value of 40 represents 60% growth inhibition. […]
About 83,000 compounds went through this panel and 20% of them were active in at least one assay; those are over-represented in the sample as a whole. Calls of active or inactive are those of the source. The calls were made as follows: active = growth percent below 10; inactive = the rest.
// classify into yes (1) (active), no (0) (inactive)

Query: Which result was noted for this compound in the test: `Cc1ccc2nc(-c3ccc(C(=O)NNC(=S)Nc4ccccc4)cc3)[nH]c2c1`
Result: no (0)

Query: Which result was noted for this compound in the test: `C[C@@H]1O[C@@H](O[C@@H]2C[C@H](c3ccc4c(c3O)C(=O)C3=C(C4=O)[C@@]4(O)C(=O)C[C@](C)(O)C[C@@]4(O)C=C3)O[C@H](C)[C@H]2O)CC[C@@H]1O[C@H]1C[C@@H](O)[C@H](O)[C@@H](C)O1`
Result: no (0)

Query: Which result was noted for this compound in the test: `Cc1cccc(Oc2ccc(Nc3ncnc4ccc(NC(=O)CN5CCN(C)CC5)cc34)cc2Cl)c1`
Result: yes (1)

Query: Which result was noted for this compound in the test: `C[C@H](C(=O)N(CCc1ccc(Cl)c(Cl)c1)Cc1cncs1)[C@@H]1CC[C@H](C[C@H](C)n2cc(CN3CCC(c4ccc(Cl)cc4)CC3)nn2)O1`
Result: no (0)

Query: Which result was noted for this compound in the test: `CN(CCCNC(=O)CCOCCOCCOCCNC(=O)Cc1ccc2ccc3cccc4ccc1c2c34)CCCNc1cc(-c2ccc3ccccc3c2)nc2ccccc12`
Result: yes (1)

Query: Which result was noted for this compound in the test: `CCN(CC)CCCN1C(=O)c2c(c(C)c3c(oc4ccc(OC)cc43)c2C)C1=O`
Result: no (0)

Query: Which result was noted for this compound in the test: `NC(=O)c1cnc(Nc2cccc(N)c2)nc1NCCCNC(=O)C1CCC1`
Result: no (0)

Query: Which result was noted for this compound in the test: `COc1ccc(-c2nn(-c3ccccc3)cc2/C=C/C(=O)NNC(=O)Nc2ccc(C)cc2)cc1`
Result: no (0)

Query: Which result was noted for this compound in the test: `CCOC(=O)C(=Cc1ccc(-c2ccccc2)cc1)C(=O)OCC`
Result: no (0)

Query: Which result was noted for this compound in the test: `CCOc1cccc(/C=N/NC(=O)c2cccc(Nc3ccnc(C(F)(F)F)c3)c2)c1O`
Result: no (0)

Query: Which result was noted for this compound in the test: `CS(=O)(=O)Nc1cc(-c2ccc3ncc(C#N)c(Nc4ccc(F)c(Cl)c4)c3c2)cnc1Cl`
Result: yes (1)

Query: Which result was noted for this compound in the test: `COc1cccc(/C=C/C(=O)c2cccc(Nc3nc(Nc4ccccc4)nc(Nc4ccccc4)n3)c2)c1`
Result: no (0)

Query: Which result was noted for this compound in the test: `Cc1cccc(N2CCC(=O)NC2=S)c1`
Result: no (0)

Query: Which result was noted for this compound in the test: `O=C(N=Nc1c(O)[nH]c2ccccc12)Nc1ccc(F)cc1`
Result: no (0)

Query: Which result was noted for this compound in the test: `O=C(CCl)NNc1nccc(Nc2ccc(S(=O)(=O)Nc3ccncc3)cc2)n1`
Result: no (0)

Query: Which result was noted for this compound in the test: `CCN1CCN(CCNc2nccc(-c3c(-c4ccc(F)c(OC)c4)nc4sccn34)n2)S1(=O)=O`
Result: no (0)

Query: Which result was noted for this compound in the test: `O=C1c2cccc3cccc(c23)C(=O)N1C/C=C/c1ccc2c3c(cccc13)C(=O)N(CCO)C2=O`
Result: no (0)

Query: Which result was noted for this compound in the test: `C/C=C(/C)n1cnc2c(Nc3ccccn3)nc(Cl)nc21`
Result: no (0)

Query: Which result was noted for this compound in the test: `COc1ccc2c(c1)CCc1[nH]nc(-c3cc(OC)c(OC)c(OC)c3)c1-2`
Result: no (0)

Query: Which result was noted for this compound in the test: `Cc1ccc(/C=C(\C#N)n2nnc3cc(F)c(F)cc32)cc1`
Result: no (0)

Query: Which result was noted for this compound in the test: `O=S(=O)(Oc1ccc(Br)cc1)c1ccc(Cl)cc1`
Result: no (0)

Query: Which result was noted for this compound in the test: `CCCCNc1cc(-c2cn[nH]c2-c2cc(C)cc(OC)c2)nc(-c2cccnc2)n1`
Result: no (0)

Query: Which result was noted for this compound in the test: `Cc1ccc(-c2nc(SCc3nc4cc(Cl)c(Cl)cc4[nH]3)[nH]c(=O)c2C#N)cc1`
Result: no (0)

Query: Which result was noted for this compound in the test: `Cc1ccnc(Nc2ccc([N+](=O)[O-])c(NCCN3CCOCC3)n2)c1`
Result: no (0)

Query: Which result was noted for this compound in the test: `O=C1/C(=C\c2ccccn2)c2ccccc2N1c1c(Cl)cccc1Cl`
Result: no (0)

Query: Which result was noted for this compound in the test: `Cc1nc2c(=O)nc3s/c(=C\c4ccco4)c(=O)n3c2nc1C`
Result: no (0)

Query: Which result was noted for this compound in the test: `Cn1cc(-c2csc(-c3cn(CCCN4CCOCC4)c4ccccc34)n2)c2cccnc21`
Result: no (0)

Query: Which result was noted for this compound in the test: `Cc1ccc(C=C2C(=O)NC(=O)NC2=O)cc1`
Result: no (0)

Query: Which result was noted for this compound in the test: `Cc1c2cccnc2c(C)c2c1c1cc(CO)ccc1n2C`
Result: no (0)

Query: Which result was noted for this compound in the test: `CN1CCN(Cc2ccc(NC(=O)c3cncc(C#Cc4cnc(N)c5ccc(F)cc45)c3)cc2C(F)(F)F)CC1`
Result: no (0)

Query: Which result was noted for this compound in the test: `O=C(CCCCCNC(=O)c1cc(=O)c(O)co1)Nc1ccccc1`
Result: no (0)

Query: Which result was noted for this compound in the test: `Fc1cc(Nc2ccc3c(OCCCN4CCOCC4)cccc3n2)ccc1Cl`
Result: yes (1)

Query: Which result was noted for this compound in the test: `C/C(Cc1ccc(Cl)cc1)=C(\c1ccc(OCCCN(C)C)cc1)c1ccc(OC(=O)Cc2ccccc2)cc1`
Result: no (0)

Query: Which result was noted for this compound in the test: `Cc1ccc(S(=O)(=O)OCCCOS(=O)(=O)c2ccc(C)cc2)cc1`
Result: no (0)

Query: Which result was noted for this compound in the test: `Oc1c(CN2CCOCC2)cc(COCc2ccccc2)c2cccnc12`
Result: no (0)

Query: Which result was noted for this compound in the test: `COc1cc(/C=C/C(=O)/C=C(O)/C=C/c2ccc(OC(=O)C34CC5CC(CC(C5)C3)C4)c(OC)c2)ccc1OC(=O)C12CC3CC(CC(C3)C1)C2`
Result: no (0)

Query: Which result was noted for this compound in the test: `CCNC(=O)Oc1ccc(/C(=C(/C)Cc2ccc(OC)cc2)c2ccc(OCCN3CCCCC3)cc2)cc1`
Result: no (0)

Query: Which result was noted for this compound in the test: `CCN(CC)CCN1C(=O)c2cccc3c(/C=C/CN4C(=O)c5cccc6cccc(c56)C4=O)ccc(c23)C1=O`
Result: no (0)

* * *

System: NCI-H460 lung
experimentSummary: NCI-60 one-dose screen, 48 h (100 = growth as untreated, 0 = no growth, -100 = all killed)
measurementSetup: 10 µM unless noted
About 83,000 compounds went through this panel and 20% of them were active in at least one assay; those are over-represented in the sample as a whole.
Classification by growth | ranges: L: < 10%; M: ≥ 10% and < 90%; H: ≥ 90%

Query: Kindly state the category for this compound: `CC1(C)CC2=C3C=C[C@@H]4[C@@]5(C)CCC(=O)C(C)(C)[C@@H]5CC[C@@]4(C)[C@]3(C)CC[C@@]2(C(=O)O)C[C@H]1O`
Result: M

Query: Kindly state the category for this compound: `C#CC#CC#CC#CC#CC#CC#CC#CC[C@@H]1OC[C@@H](COC(=O)O[C@@H](C(=O)O[C@H]2C[C@@]3(O)[C@@H](OC(=O)c4ccccc4)[C@@H]4[C@]5(OC(C)=O)CO[C@@H]5C[C@H](O)[C@@]4(C)C(=O)[C@H](OC(C)=O)C(=C2C)C3(C)C)[C@@H](NC(=O)c2ccccc2)c2ccccc2)O1`
Result: H

Query: Kindly state the category for this compound: `COC(=O)c1c2c(n3ccccc13)C(=O)c1ccccc1C2=O`
Result: L

Query: Kindly state the category for this compound: `CCNC(=O)Oc1ccc(/C(=C(/CC)Cc2ccccc2)c2ccc(OCCN3CCCC3)cc2)cc1`
Result: H

Query: Kindly state the category for this compound: `Cn1cc(-c2nn3cc(-c4cccs4)nc3s2)c2cc(F)ccc21`
Result: L

Query: Kindly state the category for this compound: `Cc1nc2ccccc2c(/C=C/c2ccccc2)c1C(=O)/C=C/c1ccccc1`
Result: L

Query: Kindly state the category for this compound: `COc1cc(/C=C2\CN(S(=O)(=O)c3ccccc3)C/C(=C\c3cc(CN4CCCCC4)c(O)c(OC)c3)C2=O)cc(CN2CCCCC2)c1O`
Result: L

Query: Kindly state the category for this compound: COc1cc2c(c(OC)c1OC)C(=O)CC(c1cccc(NC(=O)c3ccc(C#N)cc3)c1)O2 (stereo unspecified)
Result: M

Query: Kindly state the category for this compound: `CCOC(=O)/C=C1\S/C(=N\Nc2cc(=O)[nH]c3ccccc23)N(c2ccccc2)C1=O`
Result: H

Query: Kindly state the category for this compound: N#Cc1c(-c2ccccc2)nc(SCC(O)CN2CCOCC2)nc1N1CCOCC1 (stereo unspecified)
Result: M

Query: Kindly state the category for this compound: `Cn1c(=O)c2[nH]c(SCC(=O)Nc3ccc(C(=O)/C=C/c4ccccc4Cl)cc3)nc2n(C)c1=O`
Result: H

Query: Kindly state the category for this compound: `Oc1c(CN2CCC(N3CCCCC3)CC2)cc(Cc2cc(CN3CCC(N4CCCCC4)CC3)c(O)c3ncccc23)c2cccnc12`
Result: L

Query: Kindly state the category for this compound: `Cc1cccc[n+]1C1c2ccccc2-c2ccccc21`
Result: H

Query: Kindly state the category for this compound: `Cc1ccc(NC(=O)Cn2c(Br)nc3c2c(=O)n(C)c(=O)n3C)cc1`
Result: M

Query: Kindly state the category for this compound: `O=C(/C=C/c1ccc(Cl)cc1)c1cccc(OCCCOc2cccc(C(=O)/C=C/c3ccc(Cl)cc3)c2)c1`
Result: H

Query: Kindly state the category for this compound: CC(=O)ON1CCCC(P(=O)(OCCSC(=O)C(C)(C)C)OCCSC(=O)C(C)(C)C)C1=O (stereo unspecified)
Result: M
